Recorded measurements of protein stability index, one per entry
Assay: protein stability index of a GFP-peptide fusion (yeast GPS) (PSI 1-4); higher = more stable; sorted into four equal gates, so the index is relative within each strain
Details: doa10∆
Measure: protein stability index

# Polymer Sequence, Measure, Value
rows = [
    ("QILQGICKNCSAILLSE [RPO31]", "protein stability index", 2.17),
    ("KVAPAPFGAKSTKSNKT [RPL8A]", "protein stability index", 2.68),
    ("TALALKYLIKYNVFRQH [CSI1]", "protein stability index", 1.63),
    ("QLKDMQTIEMITQIVEK [SRB8]", "protein stability index", 2.87),
    ("LATGPNLTSEIEDLRAD [YOR098C/NUP1]", "protein stability index", 3.42),
    ("VDFSKYNTNFNLLLREL [SRP72]", "protein stability index", 2.99),
    ("PKDKAIKRMAIRNIVEA [RPS26A]", "protein stability index", 1.25),
    ("TVTDDARIFEFPKTTVA [RPL18A]", "protein stability index", 2.68),
    ("MHDSNLQNNSDSESDSD [SKP1]", "protein stability index", 2.94),
    ("EYIIAAIRKAPHNSKSL [RPN3]", "protein stability index", 2.79),
    ("MGIVQDTLCGIRKLTLR [RPO21]", "protein stability index", 2.89),
    ("ISKQRTFAVILFLIIQC [YMR129W/POM152]", "protein stability index", 1.38),
    ("LVHDGLARGLRESTKAL [RPS12]", "protein stability index", 3.41),
    ("EDTPANDSSATRSWRPP [RPB8]", "protein stability index", 2.44),
    ("TPANTNNSTSNANTVFS [SWI1]", "protein stability index", 2.5),
    ("PMHSIMPNSSLQPFYSQ [DSN1]", "protein stability index", 2.12),
    ("AISLGLLKGSIDQVNEL [RPN9]", "protein stability index", 3.36),
    ("TIKVVKRSMDAEQLGHA [RPP1]", "protein stability index", 3.18),
    ("SLHNTEKIMENKYPELL [AAR2]", "protein stability index", 2.94),
    ("NGAGGLMYATDWQMMTS [CSL4]", "protein stability index", 3.23),
    ("KLNVVGWFHSHPGYDCW [RRI1]", "protein stability index", 2.59),
    ("LITSEMFDAFVSFYFED [SIN4]", "protein stability index", 1.94),
    ("DHLVSSIPMGGQSINDS [ARP9]", "protein stability index", 2.78),
    ("LRFPEHTSSGSVSFKVF [BRR2]", "protein stability index", 1.59),
    ("TKRESLNARMFLKYYGA [SIR2]", "protein stability index", 2.98),
    ("TLQLYMVHREFLKLANG [RGR1]", "protein stability index", 1.49),
    ("AEKYQERSLRQKYNLLH [SNM1]", "protein stability index", 2.32),
    ("SDEKKDGDASKPAFSFG [YJL041W/NSP1]", "protein stability index", 3.24),
    ("GLMKSYKIPKVMKDIYK [ESC2]", "protein stability index", 3.15),
    ("MGGPKQKGITSYAVSPY [QCR8]", "protein stability index", 2.46),
]
